- Assayed target: PDE4B (human recombinant) (Homo sapiens, UniProt Q07343)
- Construct: made in house
- Sequence (Q07343 1-564 isoform Q07343-2): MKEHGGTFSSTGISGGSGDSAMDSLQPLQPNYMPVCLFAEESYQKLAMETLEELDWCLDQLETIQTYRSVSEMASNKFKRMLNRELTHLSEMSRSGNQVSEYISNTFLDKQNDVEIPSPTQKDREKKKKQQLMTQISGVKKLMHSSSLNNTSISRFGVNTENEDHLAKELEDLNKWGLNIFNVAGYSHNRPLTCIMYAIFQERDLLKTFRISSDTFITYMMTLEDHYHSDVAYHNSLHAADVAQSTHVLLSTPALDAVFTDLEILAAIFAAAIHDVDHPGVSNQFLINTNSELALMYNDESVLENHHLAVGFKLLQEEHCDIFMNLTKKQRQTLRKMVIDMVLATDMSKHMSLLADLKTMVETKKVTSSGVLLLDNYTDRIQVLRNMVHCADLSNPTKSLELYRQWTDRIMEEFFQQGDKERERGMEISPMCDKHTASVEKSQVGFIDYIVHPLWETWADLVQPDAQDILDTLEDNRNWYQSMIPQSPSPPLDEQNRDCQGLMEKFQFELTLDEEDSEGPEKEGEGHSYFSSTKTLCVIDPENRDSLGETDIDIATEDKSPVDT
- Assay method text: PDE4B inhibition, radioactive SPA and/or IMAP fluorescence polarisation (FP) assay
- Format: biochemical
- Condition parameters: one reading or average of several (ca. 2-6) readings; SPA and/or FP assay; range given for a group of Examples; read-out: PDE4B pIC50 (±about 0.5) (converted)
Known IC50 of a selection of molecules
Property label: IC50

Molecule | Property label | Obs value
CC[C@@H](NC(=O)c1cnc2c(cnn2CC)c1NC1CCOCC1)c1ccccc1 | IC50 | 0.794 to 5.01 nM
CCn1ncc2c(NC3CCC(C(N)=O)CC3)c(C(=O)NC(C)c3ccc(OC(F)F)cc3)cnc21 (mixture of isomers) | IC50 | 0.501 to 3.16 nM
CC[C@@H](NC(=O)c1cnc2c(cnn2CC)c1N[C@H]1CC[C@H](C(N)=O)CC1)c1ccc(C)cc1C | IC50 | 39.8 to 158 nM
CCC(NC(=O)c1cnc2c(cnn2CC)c1NC1CCC(C(N)=O)CC1)c1ccc(F)cc1 (mixture of isomers) | IC50 | 0.501 to 3.16 nM
CCn1ncc2c(N[C@H]3CC[C@@H](C(N)=O)CC3)c(C(=O)N[C@H](C)c3ccccc3)cnc21 | IC50 | 0.501 to 3.16 nM
CCn1ncc2c(NC3CCOCC3)c(C(=O)N[C@@H](COC)c3ccccc3)cnc21 | IC50 | 31.6 to 70.8 nM
CCC(NC(=O)c1cnc2c(cnn2CC)c1NC1CCC(=NO)CC1)c1ccc(C)c(C)c1 (centres unmarked) | IC50 | 0.1 to 2 nM
CCn1ncc2c(NC3CCCCC3)c(C(=O)N[C@H](C)c3ccc(C)cc3)cnc21 | IC50 | 0.1 to 2 nM
CCn1ncc2c(N[C@H]3CC[C@H](C(N)=O)CC3)c(C(=O)N[C@H](C)c3ccc(Br)cc3)cnc21 | IC50 | 39.8 to 158 nM
CCC(NC(=O)c1cnc2c(cnn2CC)c1NC1CCCC(O)C1)c1ccc(Cl)cc1 (centres unmarked) | IC50 | 0.1 to 2 nM
CCn1ncc2c(N[C@H]3CC[C@H](C(N)=O)CC3)c(C(=O)N[C@H](C)c3ccccc3)cnc21 | IC50 | 39.8 to 158 nM
CCn1ncc2c(NC3CCOCC3)c(C(=O)NC(CCO)c3ccccc3)cnc21 (centres unmarked) | IC50 | 0.794 to 5.01 nM
CCC(NC(=O)c1cnc2c(cnn2CC)c1NC1CCC(C(N)=O)CC1)c1ccc(Cl)cc1 (mixture of isomers) | IC50 | 0.501 to 3.16 nM
CCC(NC(=O)c1cnc2c(cnn2CC)c1NC1CCC(=O)CC1)c1ccc(C)cc1C (centres unmarked) | IC50 | 0.1 to 2 nM
